The values you see were collected from patent US9371294B2.

molecular target: cholesteryl ester transfer protein (Homo sapiens, UniProt P11597); construct: As a source of cholesteryl ester transfer protein, plasma from healthy humans was used; from tissue; host or cells: plasma from healthy humans; assay: In vitro test for the ability to inhibit cholesteryl ester transfer; assay type: biochemical; settings: [3H]-cholesteryl oleate transfer from rHDL-agarose to LDL; human plasma as CETP source; 37° C.; 16-10000 nM, duplicate
Sequence (P11597 18-493): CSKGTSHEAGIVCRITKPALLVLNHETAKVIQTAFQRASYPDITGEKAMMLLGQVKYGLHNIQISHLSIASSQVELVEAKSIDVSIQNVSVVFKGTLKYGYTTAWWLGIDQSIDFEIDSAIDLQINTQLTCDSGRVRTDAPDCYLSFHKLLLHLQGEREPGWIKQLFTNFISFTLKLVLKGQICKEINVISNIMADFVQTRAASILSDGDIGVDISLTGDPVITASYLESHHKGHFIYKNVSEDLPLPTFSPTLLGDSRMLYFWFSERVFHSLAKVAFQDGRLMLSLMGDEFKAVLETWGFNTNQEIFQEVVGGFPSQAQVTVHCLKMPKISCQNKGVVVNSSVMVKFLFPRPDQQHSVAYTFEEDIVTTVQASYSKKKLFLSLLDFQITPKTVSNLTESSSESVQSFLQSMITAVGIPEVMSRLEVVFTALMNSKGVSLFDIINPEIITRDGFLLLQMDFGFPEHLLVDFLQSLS
measure: IC50 (nM)

INSERT INTO results (compound, measure, numeric_value) VALUES
  ('COc1cc(C(F)(F)F)c(N(C)S(=O)(=O)C(F)(F)F)cc1C1=C(CN2C(=O)O[C@H](c3cc(C(F)(F)F)cc(C(F)(F)F)c3)[C@@H]2C)CC(C)(C)CC1', 'IC50', 10),
  ('COc1ccc(CC2(C(=O)O)CCCC2)cc1C1=C(CN2C(=O)O[C@H](c3cc(C(F)(F)F)cc(C(F)(F)F)c3)[C@@H]2C)CC(C)(C)CC1', 'IC50', 97),
  ('COc1cc(F)c(C(C)C)cc1C1=C(CN2C(=O)O[C@H](c3cc(C(F)(F)F)cc(C(F)(F)F)c3)[C@@H]2C)CC(C(F)(F)F)CC1 (some centres unmarked)', 'IC50', 5),
  ('COc1cc(F)c(C(C)C)cc1C1=C(CN2C(=O)O[C@H](c3cc(C(F)(F)F)cc(C(F)(F)F)c3)[C@@H]2C)CN(C(F)(F)F)CC1', 'IC50', 810),
  ('COc1cc(F)c(C(C)C)cc1C1=C(CN2C(=S)O[C@H](c3cc(C(F)(F)F)cc(C(F)(F)F)c3)[C@@H]2C)CC(C)(C)CC1', 'IC50', 510);

[a] COc1cc2c(cc1C1=C(CN3C(=O)O[C@H](c4cc(C(F)(F)F)cc(C(F)(F)F)c4)[C@@H]3C)CC(C)(C)CC1)OCO2
[b] COc1ccc(C(C)C)cc1C1=C(CN2C(=S)O[C@H](c3cc(C(F)(F)F)cc(C(F)(F)F)c3)[C@@H]2C)CC(C)(C)CC1
[c] COc1ccc(N(C)C(=O)C(C)(C)O)cc1C1=C(CN2C(=O)O[C@H](c3cc(C(F)(F)F)cc(C(F)(F)F)c3)[C@@H]2C)CC(C)(C)CC1
[d] COc1cc(F)c(C(C)C)cc1C1=C(CN2C(=S)O[C@H](c3cc(C(F)(F)F)cc(C(F)(F)F)c3)[C@@H]2C)CC(C)CC1 (some centres unmarked)
[e] COc1ccc(C(F)(F)F)cc1C1=C(CN2C(=O)O[C@H](c3cc(C(F)(F)F)cc(C(F)(F)F)c3)[C@@H]2C)CC(C(F)(F)F)CC1 (some centres unmarked)
# desc sort on IC50 across 5 compounds Please express your ranking as an ordered list of the labels. d, b, a, e, c

[P] COc1ccc(OC(F)(F)F)cc1C1=C(CN2C(=O)O[C@H](c3cc(C(F)(F)F)cc(C(F)(F)F)c3)[C@@H]2C)CC(C)(C)CC1
[Q] COc1ccc(C(C)C)cc1C1=C(CN2C(=O)O[C@H](c3cc(C(F)(F)F)cc(C(F)(F)F)c3)[C@@H]2C)CCC(C)(C)C1
Exercise: compare P and Q ; which one has the greater IC50? Please respond with the label that marks your chosen entry. Q
(Q: 430 nM, P: 80 nM)

[A] COc1ccc(C(C)O)cc1C1=C(CN2C(=O)O[C@H](c3cc(C(F)(F)F)cc(C(F)(F)F)c3)[C@@H]2C)CCCC1 (some centres unmarked)
[B] COC(=O)c1ccc(OC)c(C2=C(CN3C(=O)O[C@H](c4cc(C(F)(F)F)cc(C(F)(F)F)c4)[C@@H]3C)CCCC2)c1
[C] COc1ccc(CC2(C(=O)O)CCC2)cc1C1=C(CN2C(=O)O[C@H](c3cc(C(F)(F)F)cc(C(F)(F)F)c3)[C@@H]2C)CC(C)(C)CC1
[D] COc1cc(F)c(CC(C)(C)C(N)=O)cc1C1=C(CN2C(=O)O[C@H](c3cc(C(F)(F)F)cc(C(F)(F)F)c3)[C@@H]2C)CC(C)(C)CC1
Falling order of IC50, please. Lab note: final answer is the ordered label list. B, A, C, D
(B: 1090 nM, A: 100 nM, C: 20 nM, D: 9 nM)

[I] COc1cc(F)c(C(C)C)cc1C1=C(CN2C(=O)O[C@H](c3cc(C(F)(F)F)cc(C(F)(F)F)c3)[C@@H]2C)CC(C)CC1 (some centres unmarked)
[II] COc1cc(F)c(C(C)C(F)(F)F)cc1C1=C(CN2C(=O)O[C@H](c3cc(C(F)(F)F)cc(C(F)(F)F)c3)[C@@H]2C)CC(C)(C)CC1 (some centres unmarked)
Form: Entry with minimum IC50 (choose one): I / II Respond using the label that marks the chosen record. II
(II: 50 nM, I: 200 nM)

[1] COc1ccc(CC(C)(C)c2nn[nH]n2)cc1C1=C(CN2C(=O)O[C@H](c3cc(C(F)(F)F)cc(C(F)(F)F)c3)[C@@H]2C)CC(C)(C)CC1
[2] COC(=O)Cc1cc2c(c(C3=C(CN4C(=O)O[C@H](c5cc(C(F)(F)F)cc(C(F)(F)F)c5)[C@@H]4C)CC(C)(C)CC3)c1)OCO2
Of 1 versus 2 , which is the one with smaller reported IC50? Refer to your chosen entry by its label in the reply. 1
(1: 8 nM, 2: 54 nM)

[A] COc1ncc(C(F)(F)F)cc1C1=C(CN2C(=O)O[C@H](c3cc(C(F)(F)F)cc(C(F)(F)F)c3)[C@@H]2C)CC(C)(C)CC1
[B] COc1ccc(C(F)(F)F)cc1C1=C(CN2C(=O)O[C@H](c3cc(C(F)(F)F)cc(C(F)(F)F)c3)[C@@H]2C)CC(C)(C)CC1
[C] COc1ccc(CC(C)(C)c2nnn(C)n2)cc1C1=C(CN2C(=O)O[C@H](c3cc(C(F)(F)F)cc(C(F)(F)F)c3)[C@@H]2C)CC(C)(C)CC1
# sort list by recorded IC50, greatest to least A ranking is expressed here by listing the labels in the requested order. A, B, C
(A: 30 nM, B: 20 nM, C: 13 nM)

---

biological target: cholesteryl ester transfer protein (Homo sapiens, UniProt P11597); construct: As a source of cholesteryl ester transfer protein, plasma from healthy humans was used; experiment: In vitro test for the ability to inhibit cholesteryl ester transfer; details: [3H]-cholesteryl oleate transfer from rHDL-agarose to LDL; human plasma as CETP source; 37° C.; 16-10000 nM, duplicate
measure: IC50 (nM)

Please review the entries below; each comes with its answer.
INSERT INTO results (compound, readout_units, numeric_value) VALUES
  ('COc1ccc(C(O)(C(F)(F)F)C(F)(F)F)cc1C1=C(CN2C(=O)O[C@H](c3cc(C(F)(F)F)cc(C(F)(F)F)c3)[C@@H]2C)CC(C)(C)CC1', 'nM', 50),
  ('COc1ccc(N(C)C(C)=O)cc1C1=C(CN2C(=O)O[C@H](c3cc(C(F)(F)F)cc(C(F)(F)F)c3)[C@@H]2C)CC(C)(C)CC1', 'nM', 8),
  ('COc1ccc(N(C)C(=O)C(C)C)cc1C1=C(CN2C(=O)O[C@H](c3cc(C(F)(F)F)cc(C(F)(F)F)c3)[C@@H]2C)CCCC1', 'nM', 110),
  ('COc1ccc(NS(=O)(=O)C(F)(F)F)cc1C1=C(CN2C(=O)O[C@H](c3cc(C(F)(F)F)cc(C(F)(F)F)c3)[C@@H]2C)CC(C)(C)CC1', 'nM', 80),
  ('COc1cc(F)c(OCC(F)(F)F)cc1C1=C(CN2C(=O)O[C@H](c3cc(C(F)(F)F)cc(C(F)(F)F)c3)[C@@H]2C)CC(C)(C)CC1', 'nM', 40);

[A] COc1ncc(CC(C)(C)C(=O)O)cc1C1=C(CN2C(=O)O[C@H](c3cc(C(F)(F)F)cc(C(F)(F)F)c3)[C@@H]2C)CC(C)(C)CC1
[B] COc1cc(F)c(C2(C)CC2)cc1C1=C(CN2C(=O)O[C@H](c3cc(C(F)(F)F)cc(C(F)(F)F)c3)[C@@H]2C)CC(C)(C)CC1
[C] COc1cc(F)c(C(=O)C(F)(F)F)cc1C1=C(CN2C(=O)O[C@H](c3cc(C(F)(F)F)cc(C(F)(F)F)c3)[C@@H]2C)CC(C)(C)CC1
[D] COc1ccc(CCC#N)cc1C1=C(CN2C(=O)O[C@H](c3cc(C(F)(F)F)cc(C(F)(F)F)c3)[C@@H]2C)CC(C)(C)CC1
[E] COc1ccc(C2(C#N)CC2)cc1C1=C(CN2C(=O)O[C@H](c3cc(C(F)(F)F)cc(C(F)(F)F)c3)[C@@H]2C)CC(C)(C)CC1
Task for the reader: rank each entry by its IC50, from the minimum upward. Give your ranking as a list of the labels in the requested order. D, B, E, A, C
(D: 1 nM, B: 6 nM, E: 20 nM, A: 51 nM, C: 90 nM)

[A] COc1cc(F)c(C(C)C)cc1C1=C(CN2C(=O)O[C@H](c3cc(C(F)(F)F)cc(C(F)(F)F)c3)[C@@H]2C)CC(C(C)(C)C)CC1 (stereo partly drawn)
[B] COc1ccc(C(C)C)nc1C1=C(CN2C(=O)O[C@H](c3cc(C(F)(F)F)cc(C(F)(F)F)c3)[C@@H]2C)CC(C)(C)CC1
# argmax over IC50 for candidates A and B Output the label that corresponds to your choice. A
(A: 70 nM, B: 6 nM)
